- System: CSF1R;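 note: KINOMEscan kinase panel screen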
- measurement.context: concentration: 1 μM, replicates: in singlicate; n = 1
recorded.metric: %Inh (%)
The reply should contain only the number, in %.

smiles.entry | result.units | %Inh
CCNC(=O)/C=C/c1n[nH]c2cc(Sc3ccccc3C(=O)NC)ccc12 | % | 99.8

**Q:** Enter reported %Inh observed with CSF1R for CN(c1ccc(NC(=O)N2CCN(CCCN3CCOCC3)CC2)cc1)c1ccnc(Nc2ccc(CS(C)(=O)=O)cc2)n1.Cl
**A:** 66

**Q:** Try this compound too: COC(=O)Nc1nc2ccc(Oc3ccc(NC(=O)Nc4cc(C(F)(F)F)ccc4F)cc3)cc2[nH]1.Cl
**A:** 99.8

Just for reference, paper PMC5540273 is where these values come from.
